# System: γ-secretase
# Protocol details: Screening for γ-secretase-modulating activity, Aβ 42 in SKNBE2 cells carrying APP 695-wild type
# Assay type: cell-based
# Assay conditions: read-out: WTAPP SKNBE2 Aβ 42 EC50
Cut-off 400 nM on EC50: below means y, at or above means n.

Solved entries:
CC(C)CC(C(=O)O)c1cc(Nc2cc(C(F)(F)F)ccc2C(F)(F)F)cc(-c2ccc(C(F)(F)F)cc2)c1 (stereo not shown) | y
CC(C)CC(C(=O)O)c1cc(Nc2cc(C(F)(F)F)cc(C(F)(F)F)c2)cc(-c2ccc(Cl)c(C(F)(F)F)c2)c1 (stereo not shown) | n
CC(C)CC(C(=O)O)c1cc(Nc2cc(Cl)cc(Cl)c2)cc(-c2ccc(C(F)(F)F)cc2)c1 (stereo not shown) | n
CC(C)CC(C(=O)O)c1cc(Oc2cc(F)c(F)c(F)c2)cc(-c2ccc(C(F)(F)F)cc2)c1 (stereo not shown) | n
CC(C)CC(C(=O)O)c1cc(Nc2cc(C(F)(F)F)ccc2C(F)(F)F)cc(-c2cc(C(F)(F)F)cc(C(F)(F)F)c2)c1 (stereo not shown) | y

Please indicate whether the reported EC50 of "CC(C)C[C@@H](C(=O)O)c1cc(Nc2cc(C(F)(F)F)ccc2C(F)(F)F)cc(-c2ccc(C(F)(F)F)cc2)c1" is strictly below 400 nM.
y

Please indicate whether the reported EC50 of CC(C)CC(C(=O)O)c1cc(Oc2cc(F)cc(F)c2)cc(-c2ccc(C(F)(F)F)cc2)c1 (stereo not shown) is strictly below 400 nM.
n
